test system: Echinochloa oryzoides (Ard.) Fritsch.; experiment: Preemergence weed control under flooded paddy conditions, ECHORC (Watergrass (Calif.)); assay type: in vivo; details: Rate 0.1250 kg/ha; preemergence, flooded paddy; rated three to four weeks after treatment; also: meaning of each grade not given here
# herbicidal effect rating, ECHORC per entry
I'd appreciate a reply containing only the number, no unit.

* Cn1c(C(F)(F)F)cc(=O)n(-c2ccc3snc(/C=C/CBr)c3c2)c1=O | 5.0
* CCCCS(=O)(=O)NC(=O)C(C)Oc1ccc(C)cc1-c1nsc2ccc(-n3c(=O)cc(C(F)(F)F)n(C)c3=O)cc12 (stereo not shown) | 6.0
* Cn1c(C(F)(F)F)cc(=O)n(-c2ccc3snc(C(C#N)(Cc4ccccc4)Cc4ccccc4)c3c2)c1=O | 7.0

Consider the record given below.
// herbicidal effect rating, ECHORC lookup, compound = CCSCCOC(=O)c1nsc2ccc(-n3c(=O)cc(C(F)(F)F)n(C)c3=O)cc12 , result: 3.0

* * *

tested on: Monochoria vaginalis, Presl.; assay: Preemergence weed control under flooded paddy conditions, MOOVA (Monochoria); assay type: in vivo; settings: Rate 0.2500 kg/ha; preemergence, flooded paddy; rated three to four weeks after treatment; also: meaning of each grade not given here
OBSERVED PROPERTY: herbicidal effect rating, MOOVA
I'd appreciate a reply containing only the number, no unit.

As a guide, the following entries are already answered.
- Cn1c(C(F)(F)F)cc(=O)n(-c2ccc3snc(COS(C)(=O)=O)c3c2)c1=O: 9.0
- CCCCCCCOC(=O)c1nsc2ccc(-n3c(=O)cc(C(F)(F)F)n(C)c3=O)cc12: 9.0
- Cc1ccc(OC(C)C(=O)NS(=O)(=O)C(C)C)c(-c2nsc3ccc(-n4c(=O)cc(C(F)(F)F)n(C)c4=O)cc23)c1 (centres unmarked): 9.0
- Cc1ccc(OC(C)C(=O)NS(C)(=O)=O)c(-c2nsc3ccc(-n4c(=O)cc(C(F)(F)F)n(C)c4=O)cc23)c1 (centres unmarked): 9.0
- Cn1c(C(F)(F)F)cc(=O)n(-c2ccc3snc(C(C#N)=Cc4ccc[nH]4)c3c2)c1=O: 7.0

Value (herbicidal effect rating, MOOVA, Monochoria vaginalis, Presl.) for record CCCS(=O)(=O)NC(=O)C(C)Oc1ccc(C)cc1-c1nsc2ccc(-n3c(=O)cc(C(F)(F)F)n(C)c3=O)cc12 (centres unmarked) = 6.0

Value (herbicidal effect rating, MOOVA, Monochoria vaginalis, Presl.) for record Cn1c(C(F)(F)F)cc(=O)n(-c2ccc3snc(C(C#N)=Cc4ccc(O)cc4)c3c2)c1=O = 7.0

Value (herbicidal effect rating, MOOVA, Monochoria vaginalis, Presl.) for record C=C(Cl)COC(=O)c1nsc2ccc(-n3c(=O)cc(C(F)(F)F)n(C)c3=O)cc12 = 9.0

Value (herbicidal effect rating, MOOVA, Monochoria vaginalis, Presl.) for record Cn1c(C(F)(F)F)cc(=O)n(-c2ccc3snc(C#N)c3c2)c1=O = 9.0

Value (herbicidal effect rating, MOOVA, Monochoria vaginalis, Presl.) for record Cn1c(C(F)(F)F)cc(=O)n(-c2ccc3snc(C(C#N)=Cc4ccncc4)c3c2)c1=O = 9.0

Value (herbicidal effect rating, MOOVA, Monochoria vaginalis, Presl.) for record Cn1c(C(F)(F)F)cc(=O)n(-c2ccc3snc(C(C)(C)C(=O)OCc4ccccc4)c3c2)c1=O = 9.0

* * *

tested on: Oryza sativa, (L.) Tebonnet; assay: Rice tolerance to post-transplant applications under flooded paddy conditions (Example 187), ORYSAT (Rice, Tebonnet); conditions: 0.1250 kg/ha, rated three to four weeks after treatment
Consider the cut-off 3. If the recorded herbicidal effect rating, ORYSAT (rice tolerance) is strictly smaller, the label is rule met; if not, the label is rule not met.

Consider the worked cases shown below.
- Cn1c(C(F)(F)F)cc(=O)n(-c2ccc3snc(NS(C)(=O)=O)c3c2)c1=O: rule met
- COC(=O)COc1c(C)cc(C)cc1-c1nsc2ccc(-n3c(=O)cc(C(F)(F)F)n(C)c3=O)cc12: rule not met
- Cn1c(C(F)(F)F)cc(=O)n(-c2ccc3snc(COCC(F)F)c3c2)c1=O: rule not met
- Cc1nsc2ccc(-n3c(=O)cc(C(F)(F)F)n(C)c3=O)cc12: rule not met
- Cc1ccc(OCC(=O)OCC#Cc2ccccc2)c(-c2nsc3ccc(-n4c(=O)cc(C(F)(F)F)n(C)c4=O)cc23)c1: rule not met

Field: next molecule
Please let me know if CCN(CC)C(=O)COc1ccc(C)cc1-c1nsc2ccc(-n3c(=O)cc(C(F)(F)F)n(C)c3=O)cc12 shows herbicidal effect rating, ORYSAT (rice tolerance) below 3.
rule met

* * *

system: Oryza sativa, (L.) Tebonnet; experiment: Rice tolerance to post-transplant applications under flooded paddy conditions (Example 187), ORYSAT (Rice, Tebonnet); details: Rate 0.0320 kg/ha, rated three to four weeks after treatment; as to herbicidal effect rating ORYSAT: meaning of each grade not given here
OBSERVED PROPERTY: herbicidal effect rating ORYSAT

• CCCCCCCOC(=O)c1nsc2ccc(-n3c(=O)cc(C(F)(F)F)n(C)c3=O)cc12 = 3.0
• COC(C)c1nsc2ccc(-n3c(=O)cc(C(F)(F)F)n(C)c3=O)cc12 (stereo not shown) = 9.0
• C#CCOC(=O)COc1cccc(-c2nsc3ccc(-n4c(=O)cc(C(F)(F)F)n(C)c4=O)cc23)c1 = 5.5
• CCCCS(=O)(=O)NC(=O)COc1ccc(C)cc1-c1nsc2ccc(-n3c(=O)cc(C(F)(F)F)n(C)c3=O)cc12 = 0.0
• COc1cccc(-c2nsc3ccc(-n4c(=O)cc(C(F)(F)F)n(C)c4=O)cc23)c1 = 1.0
• Cn1c(C(F)(F)F)cc(=O)n(-c2ccc3snc(C(C#N)=Cc4ccc[nH]4)c3c2)c1=O = 0.0
• COCCOCCOC(=O)c1nsc2ccc(-n3c(=O)cc(C(F)(F)F)n(C)c3=O)cc12 = 3.0
• Cn1c(C(F)(F)F)cc(=O)n(-c2ccc3snc(COC(=O)Cc4ccccc4)c3c2)c1=O = 6.0

Consider the record given below.
// herbicidal effect rating ORYSAT lookup, compound = C#CCC(C#N)(CC#C)c1nsc2ccc(-n3c(=O)cc(C(F)(F)F)n(C)c3=O)cc12 , result: 1.5

* * *

system: Oryza sativa, (L.) Tebonnet; assay: Rice tolerance to post-transplant applications under flooded paddy conditions (Example 187), ORYSAT (Rice, Tebonnet); conditions: Rate 0.1250 kg/ha, rated three to four weeks after treatment
# ORYSAT herbicidal effect rating per entry
I'd appreciate a reply containing only the number, no unit.

Value (ORYSAT herbicidal effect rating, Oryza sativa, (L.) Tebonnet) for record Cn1c(C(F)(F)F)cc(=O)n(-c2ccc3snc(COC4C=CCCC4)c3c2)c1=O (stereo not shown) = 4.0

Value (ORYSAT herbicidal effect rating, Oryza sativa, (L.) Tebonnet) for record Cc1ccc(OCC(=O)NS(=O)(=O)c2sc(C)nc2C)c(-c2nsc3ccc(-n4c(=O)cc(C(F)(F)F)n(C)c4=O)cc23)c1 = 1.0

Value (ORYSAT herbicidal effect rating, Oryza sativa, (L.) Tebonnet) for record COC(=O)COCc1nsc2ccc(-n3c(=O)cc(C(F)(F)F)n(C)c3=O)cc12 = 0.0

Value (ORYSAT herbicidal effect rating, Oryza sativa, (L.) Tebonnet) for record C=C(C)C1CC=C(COCc2nsc3ccc(-n4c(=O)ccn(C)c4=O)cc23)CC1 (stereo not shown) = 2.0

* * *

# herbicidal effect rating, CYPSE per entry
tested on: Cyperus serotinus, Rottb.; assay: Preemergence weed control under flooded paddy conditions, CYPSE (Flatsedge); assay type: in vivo; details: 0.1250 kg/ha, preemergence, rated three to four weeks after treatment; as to herbicidal effect rating, CYPSE: meaning of each grade not given here
I'd appreciate a reply containing only the number, no unit.

As a guide, the following entries are already answered.
* Cc1ccc(OCC(=O)OCCN(C)C)c(-c2nsc3ccc(-n4c(=O)cc(C(F)(F)F)n(C)c4=O)cc23)c1 | 0.0
* COC(=O)C(C)Oc1c(C)cc(C)cc1-c1nsc2ccc(-n3c(=O)cc(C(F)(F)F)n(C)c3=O)cc12 (stereo not drawn) | 0.0

Value (herbicidal effect rating, CYPSE, Cyperus serotinus, Rottb.) for record C=CCOc1ccc(C)cc1-c1nsc2ccc(-n3c(=O)cc(C(F)(F)F)n(C)c3=O)cc12 = 0.0

Value (herbicidal effect rating, CYPSE, Cyperus serotinus, Rottb.) for record COc1ccccc1Oc1noc2ccc(-n3c(=O)cc(C(F)(F)F)n(C)c3=O)cc12 = 0.0

Value (herbicidal effect rating, CYPSE, Cyperus serotinus, Rottb.) for record Cc1ccc(OCC(=O)n2cnc3ccccc32)c(-c2nsc3ccc(-n4c(=O)cc(C(F)(F)F)n(C)c4=O)cc23)c1 = 2.0

Value (herbicidal effect rating, CYPSE, Cyperus serotinus, Rottb.) for record Cc1ccc(OCC(=O)OCCCl)c(-c2nsc3ccc(-n4c(=O)cc(C(F)(F)F)n(C)c4=O)cc23)c1 = 2.0

Value (herbicidal effect rating, CYPSE, Cyperus serotinus, Rottb.) for record CCc1ccc(OC(C)C(=O)OC)c(-c2nsc3ccc(-n4c(=O)cc(C(F)(F)F)n(C)c4=O)cc23)c1 (stereo not drawn) = 0.0

* * *

system: Cyperus serotinus, Rottb.; experiment: Preemergence weed control under flooded paddy conditions, CYPSE (Flatsedge); format: in vivo; conditions: 0.0620 kg/ha, preemergence, rated three to four weeks after treatment
Consider the cut-off 4. If the recorded CYPSE herbicidal rating is strictly smaller, the label is True; if not, the label is False.

* Cn1c(C(F)(F)F)cc(=O)n(-c2ccc3snc(COC(=O)c4cccs4)c3c2)c1=O | True
* Cn1c(C(F)(F)F)cc(=O)n(-c2ccc3snc(C(=O)NS(=O)(=O)Cc4ccc(Cl)cc4)c3c2)c1=O | False
* COCOCc1nsc2ccc(-n3c(=O)cc(C(F)(F)F)n(C)c3=O)cc12 | False

Please let me know if Cn1c(C(F)(F)F)cc(=O)n(-c2ccc3snc(C(=O)NS(=O)(=O)Cc4cccc(Cl)c4)c3c2)c1=O shows CYPSE herbicidal rating below 4.
True

Please let me know if COC(=O)C(C)Oc1cc(C)c(I)cc1-c1nsc2ccc(-n3c(=O)cc(C(F)(F)F)n(C)c3=O)cc12 (stereo not shown) shows CYPSE herbicidal rating below 4.
True
